Molecular target: MEK1/ERK2 (Homo sapiens)
Experiment: One well multiplexed assay, 615 nm signal: interaction between MEK1 and ERK2 with increasing ATP
Format: binding
Details: signal detected at 615 nm, FIG. 4; read-out: EC50 for ATP-induced MEK1/ERK2 dissociation
property label: EC50

> print(dat)
                               smiles.entry  property.label     value
1  Nc1ncnc2c1ncn2[C@@H]1O[C@H](COP(=O)(O)OP(=O)(O)OP(=O)(O)O)[C@@H](O)[C@H]1O            EC50  ~1000 nM

----------
Target: MEK1 (Homo sapiens)
Sequence (Q02750 whole entry, species assumed): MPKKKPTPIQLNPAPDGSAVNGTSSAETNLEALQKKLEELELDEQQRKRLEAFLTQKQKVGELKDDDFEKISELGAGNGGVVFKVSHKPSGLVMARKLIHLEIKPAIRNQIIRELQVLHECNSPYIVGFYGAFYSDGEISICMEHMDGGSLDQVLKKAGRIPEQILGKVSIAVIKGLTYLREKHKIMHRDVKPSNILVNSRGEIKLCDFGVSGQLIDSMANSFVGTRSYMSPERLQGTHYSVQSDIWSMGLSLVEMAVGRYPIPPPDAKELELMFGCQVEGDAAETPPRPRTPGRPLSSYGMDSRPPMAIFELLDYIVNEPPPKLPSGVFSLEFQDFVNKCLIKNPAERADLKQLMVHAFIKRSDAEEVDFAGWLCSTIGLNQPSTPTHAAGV
Assay: One well multiplexed assay, 572 nm signal: ERK2 phosphorylation by MEK1 with increasing ATP
Conditions: signal detected at 572 nm, FIG. 4; read-out: EC50 for ATP-induced ERK2 phosphorylation
property label: EC50

> print(dat)
                               smiles.entry  value
1  Nc1ncnc2c1ncn2[C@@H]1O[C@H](COP(=O)(O)OP(=O)(O)OP(=O)(O)O)[C@@H](O)[C@H]1O  ~1 µM

Entry source: patent US8486719B2
